test system: BALB/3T3 (murine fibroblast); assay: Anti-proliferative assay in vitro (SRB) on normal cell line BALB/3T3; format: cell-based; details: Mus musculus, 72 h exposure, tested from 100 to 0.1 µg/mL, Nd: no detectable activity in the used concentrations, DMSO 1%, read-out: BALAB/3T3 IC50 ± SD
The molecules listed here are annotated with their IC50.

molecule: CC(=NN=c1sc(C(=O)Nc2ccccc2)nn1-c1ccccc1)c1sc2nc(-c3ccc(C)cc3)cn2c1C [Compound 6g]
unit: µg/mL
IC50: 76.7
//
molecule: CC(=NN=c1sc(-c2ccccc2)nn1-c1cccc(-n2nc(-c3ccccc3)sc2=NN=C(C)c2sc3nc(-c4ccc(C)cc4)cn3c2C)c1)c1sc2nc(-c3ccc(C)cc3)cn2c1C [Compound 10]
unit: µg/mL
IC50: 26.2
//
molecule: CC(=O)c1nn(-c2ccc(C)cc2)c(=NN=C(C)c2sc3nc(-c4ccc(C)cc4)cn3c2C)s1 [Compound 6a]
unit: µg/mL
IC50: 25.1
//
molecule: CC(=O)c1nn(-c2ccc(S(=O)(=O)c3ccc(-n4nc(C(C)=O)s/c4=N\N=C(/C)c4sc5nc(-c6ccc(C)cc6)cn5c4C)cc3)cc2)/c(=N/N=C(\C)c2sc3nc(-c4ccc(C)cc4)cn3c2C)s1 [Compound 12]
unit: µg/mL
IC50: 8.34
//
molecule: COc1cccc2c1C(=O)c1c(O)c3c(c(O)c1C2=O)C[C@@](O)(C(=O)CO)C[C@@H]3O[C@H]1C[C@H](N)[C@H](O)[C@H](C)O1 [Doxorubicin, reference compound]
unit: µg/mL
IC50: 3.21

----------
# maps each entry to its melting point

molecule: CC(=O)c1nn(-c2cccc(-n3nc(C(C)=O)s/c3=N\N=C(/C)c3sc4nc(-c5ccc(C)cc5)cn4c3C)c2)/c(=N/N=C(\C)c2sc3nc(-c4ccc(C)cc4)cn3c2C)s1 [Compound 11]
melting point: 292 to 294 °C
--
molecule: CCOC(=O)c1nn(-c2ccc(Br)cc2)c(=NN=C(C)c2sc3nc(-c4ccc(C)cc4)cn3c2C)s1 [Compound 6f]
melting point: 156 to 158 °C
--
molecule: CC(=NN=c1sc(-c2ccccc2)nn1-c1cccc(-n2nc(-c3ccccc3)sc2=NN=C(C)c2sc3nc(-c4ccc(C)cc4)cn3c2C)c1)c1sc2nc(-c3ccc(C)cc3)cn2c1C [Compound 10]
melting point: > 300 °C

src = paper PMC7663531
